molecular target: Ubc9 (Homo sapiens)
Sequence (P63279 whole entry): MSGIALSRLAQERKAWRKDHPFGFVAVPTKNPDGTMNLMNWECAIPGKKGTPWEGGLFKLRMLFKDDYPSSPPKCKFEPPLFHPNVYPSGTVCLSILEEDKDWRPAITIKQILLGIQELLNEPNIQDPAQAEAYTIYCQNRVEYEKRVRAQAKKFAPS
Measurement name: IC50 (mM)

[[record]]
compound = "Oc1ccccc1-c1ccccc1O [compound 1, 2,2′-bisphenol]"
measurement_name = "IC50"
result_unit = "mM"
val = 5.8


FYI, the data here is from paper PMC4973392.
